# testName: AUC (0 to infinity) in Sprague-Dawley rat at 10 mg/kg,po measured upto 24 hrs by LC-MS/MS analysis
# Type: ADME, organism-based
# Set-up: dose 10 mg/kg, time < 24 hrs, route po
# conditionSummary: in vivo
reportedProperty: AUC(0-inf) (µg·h/mL)
Return type: number; implicit unit µg·h/mL.

Would you mind telling me what AUC(0-inf) value was observed for Cc1c(C(C#N)c2c(F)cccc2F)nc(SC(C)C)[nH]c1=O (stereo unspecified) ?
136

---

# system: Human immunodeficiency virus type 1 reverse transcriptase (Human immunodeficiency virus 1, UniProt Q72547)
# testName: Inhibition of recombinant wild-type p66/p51 HIV-1 reverse transcriptase incubated for 40 mins by picogreen dye-based spectrofluorometric analysis
reportedProperty: pIC50
Reminder that pIC50 is minus the log10 of a molar concentration.

Example entries begin here.
| compound | pIC50 |
| --- | --- |
| Cc1c(C(C#N)c2cc(F)cc(Cl)c2)nc(SC(C)C)[nH]c1=O (stereo unspecified) | 6.15 |
| Cc1c(C(C#N)c2ccc(F)c(C#N)c2)nc(SC(C)C)[nH]c1=O (stereo unspecified) | 4.08 |
| Cc1c(C(C#N)c2cccc(C(F)(F)F)c2)nc(SC(C)C)[nH]c1=O (stereo unspecified) | 5.57 |
| Cc1c(C(C#N)c2cc(Cl)cc(Cl)c2)nc(SC(C)C)[nH]c1=O (stereo unspecified) | 6.32 |
| Cc1c(C(C#N)c2cccc(Cl)c2)nc(SC(C)C)[nH]c1=O (stereo unspecified) | 6.15 |

Would you mind telling me what pIC50 value was observed for Cc1c(C(C#N)c2ccccc2Cl)nc(SC(C)C)[nH]c1=O (stereo unspecified) ?
7.10

---

# testName: Selectivity index, ratio of CC50 for human MT4 cells to EC50 for antiviral activity against NNRTI resistant HIV-1 infected in human MT4 cells
# Type: toxicity, cell-based
# conditionSummary: read-out: Ratio CC50/EC50
Param label: returns class 1 when selectivity ratio < 400, returns class 0 otherwise, including exact equality.

Answered examples (8):
| molecule | className |
| --- | --- |
| Cc1cc(C#N)cc(C)c1Oc1nc(Nc2ccc(C#N)cc2)nc(N)c1Br [ETRAVIRINE] | class 0 |
| Cc1cc(C)cc(C(C#N)c2nc(SC(C)C)[nH]c(=O)c2C)c1 (configuration not stated) | class 0 |
| Cc1c(C(C#N)c2ccc(Cl)nc2)nc(SC(C)C)[nH]c1=O (configuration not stated) | class 1 |
| Cc1c(C(C#N)c2cccnc2Cl)nc(SC(C)C)[nH]c1=O (configuration not stated) | class 1 |
| Cc1c(C(C#N)c2ccc(F)c(C#N)c2)nc(SC(C)C)[nH]c1=O (configuration not stated) | class 1 |
| Cc1c(C(C#N)c2c(F)cccc2Cl)nc(SC(C)C)[nH]c1=O (configuration not stated) | class 0 |
| Cc1c(C(C#N)c2ccc(C(F)(F)F)cc2)nc(SC(C)C)[nH]c1=O (configuration not stated) | class 1 |
| Cc1c(C(C#N)c2cc(Cl)cc(Cl)c2)nc(SC(C)C)[nH]c1=O (configuration not stated) | class 1 |

Strictly below 400 in selectivity ratio? COc1cc(F)cc(C(C#N)c2nc(SC(C)C)[nH]c(=O)c2C)c1 (configuration not stated)
class 0

Similarly, Cc1c(C(C#N)c2ccc(Cl)cc2)nc(SC(C)C)[nH]c1=O (configuration not stated) ?
class 1

---

# testName: Cytotoxicity against human MT4 cells assessed as cell growth inhibition incubated for 5 days by MTT assay
# Format: toxicity, cell-based
# conditionSummary: time 5 day
Param label: returns condition met when CC50 at 120 h < 80 µM, returns condition not met otherwise, including exact equality.

Answered examples (5):
| compound | className |
| --- | --- |
| Cc1c(C(C#N)c2ccccc2F)nc(SC(C)C)[nH]c1=O (stereo not drawn) | condition not met |
| COc1cccc(C(C#N)c2nc(SC(C)C)[nH]c(=O)c2C)c1 (stereo not drawn) | condition not met |
| Cc1cc(C)cc(C(C#N)c2nc(SC(C)C)[nH]c(=O)c2C)c1 (stereo not drawn) | condition not met |
| Cc1cccc(C)c1C(C#N)c1nc(SC(C)C)[nH]c(=O)c1C (stereo not drawn) | condition met |
| COc1ccc(C(C#N)c2nc(SC(C)C)[nH]c(=O)c2C)cc1 (stereo not drawn) | condition met |

Strictly below 80 µM in CC50 at 120 h? Cc1c(C(C#N)c2cccc(C(F)(F)F)c2)nc(SC(C)C)[nH]c1=O (stereo not drawn)
condition met

Similarly, Cc1c(C(C#N)c2ccccc2C(F)(F)F)nc(SC(C)C)[nH]c1=O (stereo not drawn) ?
condition not met

Similarly, COc1ccccc1C(C#N)c1nc(SC(C)C)[nH]c(=O)c1C (stereo not drawn) ?
condition not met

Similarly, Cc1c(C(C#N)c2ccc(C(F)(F)F)cc2)nc(SC(C)C)[nH]c1=O (stereo not drawn) ?
condition met

Similarly, Cc1c(C(C#N)c2cc(C(F)(F)F)cc(C(F)(F)F)c2)nc(SC(C)C)[nH]c1=O (stereo not drawn) ?
condition not met

---

# system: Cytochrome P450 2C19 (Homo sapiens, UniProt P33261)
# Sequence (P33261 whole entry): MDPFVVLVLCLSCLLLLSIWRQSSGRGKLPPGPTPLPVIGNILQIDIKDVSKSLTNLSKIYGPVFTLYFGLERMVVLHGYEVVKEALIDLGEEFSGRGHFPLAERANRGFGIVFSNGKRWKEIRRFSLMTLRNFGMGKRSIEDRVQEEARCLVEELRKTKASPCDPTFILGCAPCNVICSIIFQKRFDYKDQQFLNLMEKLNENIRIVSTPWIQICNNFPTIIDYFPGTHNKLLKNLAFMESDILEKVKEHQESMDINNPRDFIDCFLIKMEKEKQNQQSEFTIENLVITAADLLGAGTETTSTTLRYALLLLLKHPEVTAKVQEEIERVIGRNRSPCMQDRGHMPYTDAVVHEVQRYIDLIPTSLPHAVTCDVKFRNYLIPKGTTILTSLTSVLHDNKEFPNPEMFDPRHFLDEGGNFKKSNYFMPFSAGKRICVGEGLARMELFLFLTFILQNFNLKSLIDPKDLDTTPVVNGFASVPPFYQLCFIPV
reportedProperty: pIC50
Reminder that pIC50 is minus the log10 of a molar concentration.

Would you mind telling me what pIC50 value was observed for Cc1c(C(C#N)c2c(F)cccc2F)nc(SC(C)C)[nH]c1=O (stereo unspecified) ?
4.45

---

# system: Human immunodeficiency virus type 1 reverse transcriptase (Human immunodeficiency virus 1, UniProt Q72547)
# testName: Inhibition of recombinant wild-type p66/p51 HIV-1 reverse transcriptase incubated for 40 mins by picogreen dye-based spectrofluorometric analysis
reportedProperty: pIC50
Reminder that pIC50 is minus the log10 of a molar concentration.

Example entries begin here.
| compound | result |
| --- | --- |
| Cc1c(C(C#N)c2ccc(Cl)cc2)nc(SC(C)C)[nH]c1=O (stereo unspecified) | 5.47 |
| Cc1c(C(C#N)c2cc(Cl)cc(C(F)(F)F)c2)nc(SC(C)C)[nH]c1=O (stereo unspecified) | 5.45 |
| Cc1c(C(C#N)c2ccc(Br)cc2)nc(SC(C)C)[nH]c1=O (stereo unspecified) | 5.75 |
| Cc1c(C(C#N)c2ccccc2F)nc(SC(C)C)[nH]c1=O (stereo unspecified) | 7.00 |
| Cc1c(C(C#N)c2cccc(F)c2)nc(SC(C)C)[nH]c1=O (stereo unspecified) | 6.08 |
| Cc1c(C(C#N)c2cc(F)cc(F)c2)nc(SC(C)C)[nH]c1=O (stereo unspecified) | 5.89 |
| Cc1cccc(C(C#N)c2nc(SC(C)C)[nH]c(=O)c2C)c1 (stereo unspecified) | 6.57 |
| Cc1cc(C)cc(C(C#N)c2nc(SC(C)C)[nH]c(=O)c2C)c1 (stereo unspecified) | 6.65 |
| Cc1ccc(C(C#N)c2nc(SC(C)C)[nH]c(=O)c2C)cc1 (stereo unspecified) | 6.18 |
| COc1ccccc1C(C#N)c1nc(SC(C)C)[nH]c(=O)c1C (stereo unspecified) | 6.80 |

Would you mind telling me what pIC50 value was observed for Cc1c(C(C#N)c2ccccn2)nc(SC(C)C)[nH]c1=O (stereo unspecified) ?
5.03

---

# testName: Fold resistance, ratio of EC50 for antiviral activity against drug-resistant HIV-1 E138K mutant infected in human MT4 cells to EC50 for antiviral activity against […] HIV-1 infected in human MT4 cells
# Format: functional
reportedProperty: Ratio EC50
Write the value as a bare number.

| molecule | Ratio EC50 |
| --- | --- |
| Cc1c(C(C#N)c2cc(C(F)(F)F)cc(C(F)(F)F)c2)nc(SC(C)C)[nH]c1=O (stereo unspecified) | 8 |
| Cc1c(C(C#N)c2ccccc2Br)nc(SC(C)C)[nH]c1=O (stereo unspecified) | 2 |
| Cc1c(C(C#N)c2cc(F)cc(Cl)c2)nc(SC(C)C)[nH]c1=O (stereo unspecified) | 5 |
| Cc1c(C(C#N)c2ccccc2C(F)(F)F)nc(SC(C)C)[nH]c1=O (stereo unspecified) | 1 |
| Cc1c(C(C#N)c2cccnc2)nc(SC(C)C)[nH]c1=O (stereo unspecified) | 2 |

Continue with the next molecule.
Would you mind telling me what Ratio EC50 value was observed for Cc1ccccc1C(C#N)c1nc(SC(C)C)[nH]c(=O)c1C (stereo unspecified) ?
2

---

# testName: Fold resistance, ratio of EC50 for antiviral activity against drug-resistant HIV-1 E138K mutant infected in human MT4 cells to EC50 for antiviral activity against […] HIV-1 infected in human MT4 cells
# Assay type: functional
reportedProperty: Ratio EC50
Write the value as a bare number.

| compound | Ratio EC50 |
| --- | --- |
| Cc1c(C(C#N)c2ccccc2Cl)nc(SC(C)C)[nH]c1=O (stereo unspecified) | 1 |
| Cc1c(C(C#N)c2cccnc2Cl)nc(SC(C)C)[nH]c1=O (stereo unspecified) | 1 |
| Cc1c(C(C#N)c2cccc(F)c2)nc(SC(C)C)[nH]c1=O (stereo unspecified) | 4 |
| Cc1cc(C)cc(C(C#N)c2nc(SC(C)C)[nH]c(=O)c2C)c1 (stereo unspecified) | 6 |
| COc1ccccc1C(C#N)c1nc(SC(C)C)[nH]c(=O)c1C (stereo unspecified) | 2 |

Would you mind telling me what Ratio EC50 value was observed for Cc1c(C(C#N)c2cccc(Cl)c2)nc(SC(C)C)[nH]c1=O (stereo unspecified) ?
2
